test: Dynamic light scattering (DLS) of mRNA/peptoid formulations: particle size and polydispersity; format: physicochemical; settings: size polydispersity index by DLS; Fluc mRNA/peptoid formulation, 5:1 mass ratio
Measured Size PDI of individual entries

# molecule, Size PDI
rows = [
    ("CCCCCCCCCCN(CC(N)=O)C(=O)CN(CCCCCCCCCC)C(=O)CN(CCCCCCCCCC)C(=O)CN(CCCCCCCCCC)C(=O)CN(CCc1ccccc1)C(=O)CN(CCc1ccccc1)C(=O)CN(CC1CCNCC1)C(=O)CN(CCc1ccccc1)C(=O)CN(CCc1ccccc1)C(=O)CN(CC1CCNCC1)C(=O)CN(CCc1ccccc1)C(=O)CN(CCc1ccccc1)C(=O)CNCC1CCNCC1 [Compound 31]", 0.404),
    ("CCCCCCCCCCN(CC(N)=O)C(=O)CN(CCCCCCCCCC)C(=O)CN(CCc1ccccc1)C(=O)CN(CCc1ccccc1)C(=O)CN(CC1CCCN1)C(=O)CN(CCc1ccccc1)C(=O)CN(CCc1ccccc1)C(=O)CN(CC1CCCN1)C(=O)CN(CCc1ccccc1)C(=O)CN(CCc1ccccc1)C(=O)CNCC1CCCN1 (stereo not shown) [Compound 36]", 0.127),
    ("CCCCCCCCCCN(CC(N)=O)C(=O)CN(CCCCCCCCCC)C(=O)CN(CCN)C(=O)CN(CCN)C(=O)CN(CCN)C(=O)CN(CCN)C(=O)CN(CCN)C(=O)CN(CCN)C(=O)CN(CCN)C(=O)CN(CCN)C(=O)CNCCN [Compound 16]", 1),
]

# lookup: Size PDI of CCCCCCCCCCN(CC(N)=O)C(=O)CN(CCCCCCCCCC)C(=O)CN(CCN)C(=O)CN(CCN)C(=O)CNCCN [Compound 14]
0.233
